Hey, just so you know, these numbers are from PubChem BioAssay (NCI).

- System: SNB-78 CNS
- assay.details: NCI tumour cell line growth inhibition, 48 h

# compound, TGI
measured = [
    ("O=C1CCN(CCC(F)(F)C(F)(F)C(F)(F)C(F)(F)F)C(=S)N1", "> 100 µM"),
    ("CC(=O)Nc1ccc(S(=O)(=O)N/N=C/c2cc(I)cc([N+](=O)[O-])c2O)cc1", "> 100 µM"),
    ("Cc1cc2c(cc1C)[n+](=O)c(C(=O)CC(=O)C(=O)Nc1ccccc1C)c(C)n2[O-]", "> 100 µM"),
    ("Cc1ccc(NCCO)cc1", "> 100 µM"),
    ("S=c1sc2sc(=S)sc2s1", "> 100 µM"),
    ("OCC(O)COc1ccc(F)cc1 (stereo not drawn)", "> 100 µM"),
    ("Cc1ccc(S(=O)OC2c3ccccc3Cc3ccccc32)cc1 (stereo not drawn)", "46.1 µM"),
    ("c1ccc2c(CNCCCN3CCN(CCCNCc4cccc5ccccc45)CC3)cccc2c1", "4.59 µM"),
]
